target system: T1, human MuSK (human, UniProt O15146)
T1 chain: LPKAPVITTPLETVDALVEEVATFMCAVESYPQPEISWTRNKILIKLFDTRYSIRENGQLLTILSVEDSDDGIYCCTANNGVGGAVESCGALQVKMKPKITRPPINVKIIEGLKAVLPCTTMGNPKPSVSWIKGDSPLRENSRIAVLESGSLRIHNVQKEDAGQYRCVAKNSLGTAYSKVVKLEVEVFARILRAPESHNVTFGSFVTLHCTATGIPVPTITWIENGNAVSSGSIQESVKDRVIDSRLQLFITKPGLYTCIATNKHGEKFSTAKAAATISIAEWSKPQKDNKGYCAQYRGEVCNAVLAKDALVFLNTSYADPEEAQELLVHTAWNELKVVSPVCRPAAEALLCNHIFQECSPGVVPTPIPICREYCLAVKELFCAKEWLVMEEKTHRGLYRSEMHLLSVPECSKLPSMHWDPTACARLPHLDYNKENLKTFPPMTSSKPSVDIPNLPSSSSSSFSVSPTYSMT
method: SPR
measured attribute: pKd
Please treat pKd as minus the base-10 logarithm of the molar concentration.

## Input Consider the binder MuSK7-pal (macrocyclic homodimer with palmitoyl group) chain 1: YPSYHTNVVASLKRC chain 2: YPSYHTNVVASLKRC and give its measured pKd.
## Output 9.05
